Provenance of the data: the supplement of paper PMC13380429

In this section, each of the compounds is paired with its reported cell viability.
Tested on: Calu-3
Assay remarks: cell viability relative to DMSO; higher = less toxic
Conditions used: 72 h; 10000 nM
A number alone suffices; assume %.

Here's what some known entries look like.
compound="CC(=O)O[C@]1(C(C)=O)CC[C@H]2[C@@H]3CCC4=CC(=O)CCC4=C3[C@@H](c3ccc(N(C)C)cc3)C[C@@]21C [Ulipristal acetate]" unit_info=% quantitative_readout=110
compound="Cc1nc(Nc2cnn(C3CCNCC3)c2)nc2c1N(C)C(=O)c1cc3ccccc3cc1N2C [HTH-01-015]" unit_info=% quantitative_readout=59.4
compound="CC1(C)C(/C=C/C=C/C=C/C=C2\\N(CCCCS(=O)(=O)O)c3ccc4ccccc4c3C2(C)C)=[N+](CCCCS(=O)(=O)[O-])c2ccc3ccccc3c21 [indocyanine-green]" unit_info=% quantitative_readout=88.3
compound="C[C@@H]([C@@H](O)c1ccc(O)cc1)N1CCC(O)(c2ccccc2)CC1 [traxoprodil]" unit_info=% quantitative_readout=108
compound="O=C(NCCNCC(O)COc1ccc(O)cc1)N1CCOCC1 (configuration not stated) [xamoterol]" unit_info=% quantitative_readout=93.6
compound="CC(C)C[C@@H](NC(=O)[C@H](C)NC(=O)CNC(=O)[C@@H](NC=O)C(C)C)C(=O)N[C@@H](C)C(=O)N[C@@H](C(=O)N[C@H](C(=O)N[C@@H](C(=O)N[C@@H](Cc1c[nH]c2ccccc12)C(=O)N[C@H](CC(C)C)C(=O)N[C@@H](Cc1c[nH]c2ccccc12)C(=O)N[C@H](CC(C)C)C(=O)N[C@@H](Cc1c[nH]c2ccccc12)C(=O)N[C@H](CC(C)C)C(=O)N[C@@H](Cc1c[nH]c2ccccc12)C(=O)NCCO)C(C)C)C(C)C)C(C)C [gramicidin]" unit_info=% quantitative_readout=42.9
compound="C[C@]12CCC(=O)C=C1CC[C@@H]1[C@@H]2CC[C@@]2(C)[C@H]1CC[C@]2(C)O [17-alpha-Methyltestosterone]" unit_info=% quantitative_readout=115
compound="c1ccc(Oc2nc(NC3CCCCC3)c3[nH]cnc3n2)cc1 [MRS-3777]" unit_info=% quantitative_readout=101

What value of cell viability has been recorded for this entry: CC(C)=CC[C@@H](O)C1=CC(=O)c2c(O)ccc(O)c2C1=O [Shikonin]
2

What value of cell viability has been recorded for this entry: CC(NC(C)(C)C)C(=O)c1cccc(Cl)c1 (configuration not stated) [bupropion]
101

What value of cell viability has been recorded for this entry: CCCS(=O)(=O)Nc1ccc(F)c(C(=O)c2c[nH]c3ncc(Cl)cc23)c1F [PLX4720]
106

What value of cell viability has been recorded for this entry: COc1cc(OC)c(/C=C/S(=O)(=O)Cc2ccc(OC)c(OP(=O)(O)O)c2)c(OC)c1 [briciclib]
41

What value of cell viability has been recorded for this entry: Cc1ncc(-c2csc(N=C(N)N)n2)[nH]1 [zaltidine]
103

What value of cell viability has been recorded for this entry: O=C(O)CC1CC(c2ccccc2)=NO1 (configuration not stated) [VGX-1027]
103

What value of cell viability has been recorded for this entry: O=C1C[C@@H](c2ccc(O)cc2)Oc2cc(O)cc(O)c21 [naringenin]
93.7

What value of cell viability has been recorded for this entry: COc1cccc(-c2cc(F)ccc2[C@H]2Cc3nc(N)nc(C)c3C(=O)N2)n1 [NVP-HSP990]
36.2

What value of cell viability has been recorded for this entry: c1ccc2oc(C3=NCCN3)cc2c1 [2-BFI]
95.7

====

Test system: HepG2
Assay remarks: cell viability relative to DMSO; higher = less toxic
Conditions used: 72 h; 100 nM
Measurement type: cell viability (%)
A number alone suffices; assume %.

molecule=CC(=O)c1cc([N+](=O)[O-])c(Sc2ccc(F)cc2F)s1 target_desc=HepG2 quantitative_readout=106
molecule="O=C(OCCN1CCOCC1)c1cccnc1Nc1cccc(C(F)(F)F)c1 [morniflumate]" target_desc=HepG2 quantitative_readout=87.3
molecule=COC(=O)Nc1nc2cc(SC(C)C)ccc2[nH]1 target_desc=HepG2 quantitative_readout=95.7
molecule=CCOc1ccc(C(=O)OCCN(CC)CC)cc1 target_desc=HepG2 quantitative_readout=106

Consider now this further molecule.
What value of cell viability has been recorded for this entry: `Cc1c(F)cccc1NC(=O)Nc1ccc(Cl)c(S(=O)(=O)[C@H]2CCCNC2)c1O`
103

====

In this section, each of the compounds is paired with its reported relative viability EC50.
Test system: HepG2
Assay remarks: relative viability EC50 (midpoint between 100% and the lowest measured viability); higher = less toxic
Conditions used: 72 h

Here's what some known entries look like.
compound="O=C(NCCNCC(O)COc1ccc(O)cc1)N1CCOCC1 (stereo not drawn) [xamoterol]" result="> 10 µM"
compound="Cc1ncc(-c2csc(N=C(N)N)n2)[nH]1 [zaltidine]" result="> 10 µM"
compound="CC(=O)N1N=C(c2ccc(N)cc2)c2cc3c(cc2C[C@H]1C)OCO3 [talampanel]" result="> 10 µM"
compound="N=C(N)NCCSSCCNC(=N)N [guanidinoethyldisulfide-bicarbonate]" result="> 10 µM"
compound="O=C1C[C@@H](c2ccc(O)cc2)Oc2cc(O)cc(O)c21 [naringenin]" result="> 10 µM"

What value of relative viability EC50 has been recorded for this entry: `C[C@H](Cc1ccc(OCC(=O)O)cc1)NC[C@H](O)c1cccc(Cl)c1`
> 10 µM

What value of relative viability EC50 has been recorded for this entry: O=C(Nc1cnn2ccc(N3CCC[C@@H]3c3cc(F)ccc3F)nc12)N1CC[C@H](O)C1 [larotrectinib]
> 10 µM

What value of relative viability EC50 has been recorded for this entry: C=C(C)[C@@H]1CC=C(CO)CC1 [perillyl-alcohol]
> 10 µM

What value of relative viability EC50 has been recorded for this entry: COC(=O)Nc1nc2cc(SC(C)C)ccc2[nH]1 [methiazole]
1.53 µM

What value of relative viability EC50 has been recorded for this entry: C=C[C@@H]1C[C@]1(NC(=O)[C@@H]1C[C@@H](Oc2ncc(OC)c3ccc(Cl)cc23)CN1C(=O)[C@@H](NC(=O)OC(C)(C)C)C(C)(C)C)C(=O)NS(=O)(=O)C1CC1 [asunaprevir]
> 10 µM

====

System: Vero E6
Assay remarks: cell viability relative to DMSO; higher = less toxic
Conditions used: 72 h; 10 nM
Measurement type: cell viability (%)
A number alone suffices; assume %.

Here's what some known entries look like.
molecule="CC(C)(CO)Cc1cc(C(C)(C)C)c(O)c(C(C)(C)C)c1 [CGP-7930]" measurement_type="cell viability" unit_info=% quantitative_readout=109
molecule="CCn1c(=O)[nH]c2ccccc21 [1-EBIO]" measurement_type="cell viability" unit_info=% quantitative_readout=97.5
molecule="CCCn1c(=O)c2[nH]c(C3CCCC3)nc2n(CCC)c1=O [DPCPX]" measurement_type="cell viability" unit_info=% quantitative_readout=107

Consider now this further molecule.
What value of cell viability has been recorded for this entry: COC(=O)Nc1nc2cc(C(=O)c3ccccc3)ccc2[nH]1 [mebendazole]
97.6

====

In this section, each of the compounds is paired with its reported cell viability.
System: Caco-2
Assay remarks: cell viability relative to DMSO; higher = less toxic
Conditions used: 72 h; 100 nM
Counter-ions that a name gives are not always drawn.
A number alone suffices; assume %.

Here's what some known entries look like.
compound=O=c1c(O)c(-c2ccc(O)cc2)oc2cc(O)cc(O)c12 target_desc=Caco-2 unit_info=% quantitative_readout=97.5
compound="CO/N=C(\\C(=O)N[C@@H]1C(=O)N2C(C(=O)O)=C(CSC(=O)c3ccco3)CS[C@H]12)c1csc(N)n1 [CEFTIOFUR HYDROCHLORIDE]" target_desc=Caco-2 unit_info=% quantitative_readout=90.6
compound=CCOC(=O)C(=O)Nc1cccc(OC)c1C(N)=O target_desc=Caco-2 unit_info=% quantitative_readout=103
compound="Cc1nnc(C(C)C)n1C1C[C@H]2CC[C@@H](C1)N2CC[C@H](NC(=O)C1CCC(F)(F)CC1)c1ccccc1 (stereo in doubt)" target_desc=Caco-2 unit_info=% quantitative_readout=99.5
compound="O=C(/C=C/c1ccccc1)NC(NC(=S)Nc1cccc2cccnc12)C(Cl)(Cl)Cl (stereo not drawn)" target_desc=Caco-2 unit_info=% quantitative_readout=96.7
compound=O=C(NCCO)c1cccc(-c2cc(Nc3ccc(OC(F)(F)F)cc3)ncn2)c1 target_desc=Caco-2 unit_info=% quantitative_readout=95.3

What value of cell viability has been recorded for this entry: `Cc1nc(NC(=O)N2CCC[C@H]2C(N)=O)sc1-c1csc(C(C)(C)C)n1`
95.8

What value of cell viability has been recorded for this entry: `Cc1ccc(CNc2ncnc3ccc(-c4ccc(CO)o4)cc23)o1`
110

What value of cell viability has been recorded for this entry: `CN(C)C(=O)Oc1cccc([N+](C)(C)C)c1`
100

====

Tested on: Caco-2
Assay remarks: cell viability relative to DMSO; higher = less toxic
Conditions used: 72 h; 10000 nM
Measurement type: cell viability (%)
A number alone suffices; assume %.

molecule="CCN1CCN(c2ccc(Nc3cc(N(C)C(=O)Nc4c(Cl)c(OC)cc(OC)c4Cl)ncn3)cc2)CC1 [NVP-BGJ398]" quantitative_readout=76.1
molecule="CC(c1cc2ccccc2s1)N(O)C(N)=O (stereo not given) [zileuton]" quantitative_readout=91

What value of cell viability has been recorded for this entry: c1ccc2oc(C3=NCCN3)cc2c1 [2-BFI]
112

What value of cell viability has been recorded for this entry: Nc1nc(=O)c(Br)c(-c2ccccc2)[nH]1 [bropirimine]
112
